# TGI per entry
tested on: SW-620 colon; assay: NCI tumour cell line growth inhibition, 48 h

compound	result
CN(C)C(=S)Oc1ccc2ccc(=O)oc2c1	> 100 µM
CCN(CC)c1ccc2cc(-c3nc4ccccc4c(=O)[nH]3)c(=N)oc2c1	> 100 µM
NC1=NCC(CN2CCCC2)O1 (stereo unspecified)	> 100 µM
O=S(=O)(c1ccc(O)c(C=Nc2ccc(Cl)cc2)c1)c1ccc(O)c(C=Nc2ccc(Cl)cc2)c1	> 100 µM

Which TGI is listed for COc1ccccc1NC(=O)C(CC(C(=O)Nc1ccccc1OC)/C(C)=N/Nc1ccc([N+](=O)[O-])cc1[N+](=O)[O-])/C(C)=N/Nc1ccc([N+](=O)[O-])cc1[N+](=O)[O-] (stereo unspecified) ?
> 100 µM

Next: CN(C=O)/C=C/c1cc(O)ccc1O
37.9 µM
